- System: MS2 coat protein
- assay_remarks: apparent KD of MS2 coat protein; designed switch direction (-1 OFF switch, 1 ON switch): -1; higher = weaker reporter binding
- test_parameters: input ligand: none
measurement_name: apparent KD of MS2 coat protein
Respond with a number, then the unit of measure.

Consider the worked cases shown below.
biopolymer_sequence | apparent KD of MS2 coat protein
GCUGGUCGAGGAUAUACAUGAGGAUCACCCAUGUUGAUCAACUGCCGAUAGGCAGAAUGUAGAAGGCGACCAGC [E3/7-A1] (Eterna round: R97, puzzle: Exclusion 3) | 1110 nM
CUCGUGCGGCUUUGCUGUGCGGGUACAUGAGGAUCACCCAUGUAGGAUAUGGUGCGCUUUGCGUGCCAGAAGGGCGUGCGUUGG [salish99_ExNG3_r04_011] (Eterna round: R96, puzzle: Exclusion NG 3) | 27.3 nM
CAUGUCCAACGAGGAUAUGGUAAAGGAAGUGUACCAGAAGGCGUGCGGACAUGAGGAUCACCCAUGUCGCGCGGUGCGAUGUGG [MOD3 Nando EXNG 1.1] (Eterna round: R96, puzzle: Exclusion NG 1) | 29.3 nM

apparent KD of MS2 coat protein lookup needed for GCAAGCUUUUUGCGUAGGAACAUGAGGAUCACCCAUGUGCAUGGAAAGAUGGGAAAGAAAGGAGAGAAAGAUGAAAG [Alacar 1] (Eterna round: R97, puzzle: Sensor, turn-off variant 1) , thanks.
88.1 nM

What do you have for CCUCCGCAUUAGGAUAUCGUCCCGGAAACGGGACGAGAAGGAAUGACAUGAGGAUCACCCAUGUUAACGUGAUG [Mod of Brourd 18 - Jieux - Exclusion 6] (Eterna round: R97, puzzle: Exclusion 6) ?
48.2 nM

Please do the same for GUCCGACAUGAGGAUCACCCAUGUGAGGAUAUACGAUUAGCUGCUAGGUAGUUAGUAUGUAGAAGGUGCAUGAA [EX1 #74] (Eterna round: R97, puzzle: Exclusion 1) as well.
17.5 nM

Note, next up: AAAUGGGCGUAGGAUAUGAGAUGGUCUAGCAGCUCAGAAGGACGCACAUGAGGAUCACCCAUGUGAUCGGACUA [Celebidi] (Eterna round: R96, puzzle: Exclusion 6)
34.8 nM

Likewise for GGGCGCUUAGGAUAUACAUGAGGAUCACCCAUGUGGCUCUCCACGUUGCAUAACAUUCGUAGAAGGAAGCGCAU [Eternabot (L1) Solution 69] (Eterna round: R97, puzzle: Exclusion 3) ?
35.8 nM

Again, but for CUGAAUAGAGGAUAUUGUACUGCUGACAUGAGGAUCACCCAUGUAUGUUAACUCGGCCGUCGAGAAGGCUAACAAA [BotMod 13 - Jieux - Exclusion 5] (Eterna round: R97, puzzle: Exclusion 5)
41.2 nM

What do you get for ACACUGCGAGGAUAUACAUGAGGAUCACCCAUGUGUCGGCAGGUACGGUAGCACUAGUGUAGAAGGCGCAUUAG [EX3 #40] (Eterna round: R97, puzzle: Exclusion 3) ?
15.4 nM
